B1: TPR t1 (parent)
chain: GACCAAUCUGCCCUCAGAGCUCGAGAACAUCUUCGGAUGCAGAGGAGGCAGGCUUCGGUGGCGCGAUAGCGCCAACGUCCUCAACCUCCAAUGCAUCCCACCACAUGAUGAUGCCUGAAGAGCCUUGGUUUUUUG

Variants of: B1
Assay: polymerase ribozyme fitness, log enrichment relative to wild type (log ratio); higher = more active; in vitro selection for triplet polymerase activity
recorded_endpoint: polymerase ribozyme fitness (log ratio)
Numbers only.

These solved cases illustrate the format of a correct answer.
{"variant_string": "C12U G17U C94U G113A", "observed_measurement": -2.71}
{"variant_string": "A29C A75G U78G", "observed_measurement": -2.56}
{"variant_string": "A37C G44A C53A G63C C124A", "observed_measurement": -3.21}
{"variant_string": "C28U U112A G122A U129A", "observed_measurement": -6.54}

I'm hoping you can list polymerase ribozyme fitness (log ratio) for every variant here, please.
1. C56G G57U G63U
2. A119U G127U
3. A100U U129A
4. A5U G47A C101U

**Result**
1. -3.14
2. -2.01
3. -0.992
4. -1.94
